All figures here come from patent US5455228A.

- Test system: plasma aminopeptidase M
- Construct: from tissue; host or cells: human citrated platelet-poor plasma
- method notes: Peptide digestion during incubation with platelet-poor plasma, HPLC
- Type: in vitro ADME, human
- particulars: human, citrated platelet-poor plasma; incubated with plasma at 37° C., about two hours; read-out: peptide cleavage
observable: metabolised at 2 h, 1 mM (%)
Please respond with the number in % and leave the unit unwritten.

Suppose we examine the molecule CC(C)C[C@H](NC(=O)[C@H](CC(C)C)NC(=O)[C@H](Cc1ccccc1)NC(=O)[C@@H](N)CO)C(=O)N[C@@H](CCCN=C(N)N)C(=O)N[C@@H](CC(N)=O)C(N)=O [SFLLRN] ; what metabolised at 2 h, 1 mM value has been reported? 96

====

- Test system: plasma aminopeptidase M
- Construct: from tissue; host or cells: human citrated platelet-poor plasma
- method notes: Peptide digestion during incubation with platelet-poor plasma, HPLC
- Type: in vitro ADME, human
- particulars: human, 50% citrated platelet-poor plasma; 1 mM final, 50% platelet-poor plasma, 37° C., 120 min; read-out: percentage remaining intact
observable: remaining at 2 h, 1 mM (%)
Use % as the unit, but write only the number.

Can you share its remaining at 2 h, 1 mM? I mean this compound: CC(C)C[C@H](NC(=O)[C@H](CC(C)C)NC(=O)[C@H](Cc1ccccc1)NC(=O)[C@@H](N)CO)C(=O)N[C@@H](CCCN=C(N)N)C(=O)N[C@@H](CC(N)=O)C(N)=O 4

====

- Test system: plasma aminopeptidase M
- Construct: from tissue; host or cells: human citrated platelet-poor plasma
- method notes: Peptide digestion during incubation with platelet-poor plasma, HPLC
- Type: in vitro ADME, human
- particulars: human, 50% citrated platelet-poor plasma; 1 mM final, 50% platelet-poor plasma, 37° C., 45 min; read-out: percentage remaining intact
observable: remaining at 0.75 h, 1 mM (%)
Report the figure in % without appending any unit label.

Notebook: pull reported remaining at 0.75 h, 1 mM for plasma aminopeptidase M, entry CC(C)C[C@H](NC(=O)[C@H](CC(C)C)NC(=O)[C@H](Cc1ccccc1)NC(=O)[C@@H](N)CO)C(=O)N[C@@H](CCCN=C(N)N)C(=O)N[C@@H](CC(N)=O)C(N)=O [SFLLRN] 23

====

- System: plasma aminopeptidase M
- Construct: from tissue; host or cells: human citrated platelet-poor plasma
- method notes: Peptide digestion during incubation with platelet-poor plasma, HPLC
- Assay type: in vitro ADME, human
- particulars: human, 50% citrated platelet-poor plasma; 1 mM final, 50% platelet-poor plasma, 37° C., 15 min; read-out: peptide no longer intact
observable: metabolised at 0.25 h, 1 mM (%)
Give the value, in units of %, as a plain number.

Record lookup: for plasma aminopeptidase M, what metabolised at 0.25 h, 1 mM belongs to CC(C)C[C@H](NC(=O)[C@H](CC(C)C)NC(=O)[C@H](Cc1ccccc1)NC(=O)[C@@H](N)CO)C(=O)N[C@@H](CCCN=C(N)N)C(=O)N[C@@H](CC(N)=O)C(N)=O ? 35
